System: TNF-α (degradation of IkB in HeLa cells or A431 cells)
test-method-notes: Human cell-based assay: inhibition of TNF-α induced degradation of IkB
setup-conditions: 10 μM compound, HeLa or A431 cells, read-out: Inhibition at Various Compound Concentrations, 10 μM
Numbered stars: 1 amine (or outer) side, 2 acyl side, 3 side chain; on linkers, the order of the positions; unused ones are H or OH. Bridge positions count the residues as written; N and C are the ends. Square brackets hold non-standard residues; d marks the D form. Peptide text beside a SMILES is read from it. Phe(4-COOH) = N[C@@H](Cc1ccc(C(=O)O)cc1)C(=O)O; Bip = N[C@@H](Cc1ccc(-c2ccccc2)cc1)C(=O)O; Phe(4-Br) = N[C@@H](Cc1ccc(Br)cc1)C(=O)O; Phe(4-NH2) = Nc1ccc(C[C@H](N)C(=O)O)cc1; d(hPhe) = N[C@H](CCc1ccccc1)C(=O)O; d2Thi = N[C@H](Cc1cccs1)C(=O)O; Suc = O=C(CCC(=O)[*:2])[*:1]; Ac3c = NC1(C(=O)O)CC1; βAla = NCCC(=O)O

- molecule: "O=C1CCC(=O)N[C@H](Cc2cccs2)C(=O)N[C@@H](Cc2ccc(-c3ccccc3)cc2)C(=O)N[C@H](Cc2ccccc2)C(=O)N[C@H](C(=O)NC2(C(=O)O)CC2)Cc2ccc(cc2)N1 [Compound 39] ([d2Thi][Bip][dF][Phe(4-NH2)][Ac3c]-OH; linker N-4 via Suc)"
  inhibition at 10 µM: "10 to 50%"
- molecule: "O=C1CCC(=O)N[C@H](Cc2cccs2)C(=O)N[C@@H](Cc2ccc(Br)cc2)C(=O)N[C@H](Cc2ccccc2)C(=O)N[C@H](C(=O)N[C@@H](Cc2ccccc2)C(=O)O)Cc2ccc(cc2)N1 [Compound 201] ([d2Thi][Phe(4-Br)][dF][Phe(4-NH2)]F-OH; linker N-4 via Suc)"
  inhibition at 10 µM: "10 to 50%"
- molecule: "COC(=O)[C@H](CC(=O)O)NC(=O)[C@@H]1Cc2ccc(cc2)OCC(=O)N[C@H](Cc2cccs2)C(=O)N[C@@H](Cc2ccc(-c3ccccc3)cc2)C(=O)N[C@H](CCc2ccccc2)C(=O)N1 [Compound 325]"
  inhibition at 10 µM: "< 10%"
- molecule: "O=C(O)[C@@H]1Cc2ccc(cc2)NC(=O)[C@H](O)[C@@H](O)C(=O)N[C@H](Cc2cccs2)C(=O)N[C@@H](Cc2ccc(-c3ccc(Cl)cc3)cc2)C(=O)N[C@H](Cc2ccccc2)C(=O)N1 [Compound 180]"
  inhibition at 10 µM: "< 10%"
- molecule: "O=C(O)[C@H](Cc1ccccc1)NC(=O)[C@@H]1Cc2ccc(cc2)NC(=O)[C@H](O)[C@@H](O)C(=O)N[C@H](Cc2cccs2)C(=O)N[C@@H](Cc2ccc(-c3ccccc3)cc2)C(=O)N[C@H](CCc2ccccc2)C(=O)N1 [Compound 350]"
  inhibition at 10 µM: "10 to 50%"
- molecule: "CC[C@H](C)[C@H](NC(=O)[C@@H]1Cc2ccc(cc2)OCC(=O)N[C@H](Cc2cccs2)C(=O)N[C@@H](Cc2ccc(-c3ccccc3)cc2)C(=O)N[C@H](CCc2ccccc2)C(=O)N1)C(=O)O [Compound 307]"
  inhibition at 10 µM: "< 10%"
- molecule: "O=C1CCNC(=O)c2ccc(cc2)C[C@@H](C(=O)O)NC(=O)[C@@H](Cc2ccccc2)NC(=O)[C@H](Cc2ccc(-c3ccccc3)cc2)NC(=O)[C@@H](CCc2ccccc2)N1 [Compound 248] ([βAla][d(hPhe)][Bip][dF][Phe(4-COOH)]-OH; lactam N-5)"
  inhibition at 10 µM: "10 to 50%"
